biological target: human BRD4 bromodomain II (Homo sapiens); construct: human BRD4 bromodomain II [based on Genbank NM_058243, residues 349-460]; host or cells: E. coli; experiment: Bromodomain binding assay (AlphaScreen), BRD4 BDII; conditions: AlphaScreen assay, Table C2; read-out: BRD4 BDII IC50
Assay metric: IC50

IC50 in this record for O=C1CCCN1c1c(F)cc(-c2cccc(-c3ccncc3)c2O)cc1F [Example 207] : > 100 nM

IC50 in this record for CC(=O)Nc1ccc(-c2cccc(-c3cccc(N4C[C@@H]5CC[C@H]4CN5)c3)c2O)cc1F [Example 183] : 10 to 100 nM

IC50 in this record for Cn1ccn(-c2ccc(-c3cc(F)cc(-c4ccnc(N5CCCC5)c4)c3O)cc2Cl)c1=O [Example 613] : 1 to 10 nM

IC50 in this record for CC(C)N1CCN(c2cccc(-c3cc(F)cc(-c4ccc(-n5ccn(C)c5=O)c(Cl)c4)c3O)c2)CC1 [Example 699] : 0.01 to 1 nM

IC50 in this record for Cn1ccn(-c2ccc(-c3cc(F)cc(-c4cncc(N5CCC[C@H](N)C5)c4)c3O)cc2Cl)c1=O [Example 461] : 0.01 to 1 nM

IC50 in this record for CC(=O)Nc1ccc(-c2cccc(-c3ccc4c(c3)CNC(=O)N4)c2O)cc1F [Example 155] : 10 to 100 nM

IC50 in this record for CC(=O)Nc1ccc(-c2cccc(-c3ccc4c(c3)OCCN4C)c2O)cc1F [Example 144] : > 100 nM

IC50 in this record for CC(=O)Nc1ccc(-c2cccc(-c3ccc(Cl)c(N4CCNCC4)c3)c2O)cc1F [Example 241] : 1 to 10 nM

IC50 in this record for CN1CCN(c2cc(-c3cc(F)cc(-c4ccc(-n5ccn(C)c5=O)c(Cl)c4)c3O)cc3c2cnn3C)CC1 [Example 604] : 0.01 to 1 nM

IC50 in this record for Cn1ccn(-c2ccc(-c3cc(F)cc(-c4ccnc(N5C[C@H](O)[C@@H](F)C5)c4)c3O)cc2Cl)c1=O [Example 786] : 1 to 10 nM

IC50 in this record for CC1=CCN(c2ccc(-c3cc(F)cc(-c4ccnc(N5CCNCC5)c4)c3O)cc2Cl)C1=O [Example 366] : 1 to 10 nM

IC50 in this record for CCC1(O)CCN(c2cc(-c3cc(F)cc(-c4ccc(-n5ccn(C)c5=O)c(Cl)c4)c3O)ccn2)C1 (stereo not drawn) [Example 737] : 0.01 to 1 nM

IC50 in this record for C[C@@H]1CN(c2cncc(-c3cccc(-c4ccc(N5CCCC5=O)c(Cl)c4)c3O)c2)CCN1 [Example 265] : 1 to 10 nM

IC50 in this record for Cn1cc(-c2cc(F)cc(-c3ccc(-n4ccn(C)c4=O)c(Cl)c3)c2O)cc(N2CC[C@@](C)(N)C2)c1=O [Example 753] : 0.01 to 1 nM

IC50 in this record for CC(=O)N(C)c1ccc(-c2cccc(-c3cc(N4CCNCC4)no3)c2O)cc1 [Example 9] : > 100 nM

IC50 in this record for CN1CCN(c2ccc(-c3cc(F)cc(-c4ccc(OC5CCNCC5)nc4)c3O)cc2Cl)C1=O [compound 446] : 10 to 100 nM

IC50 in this record for CC[C@]1(O)CCN(c2cc(-c3cc(F)cc(-c4ccc(-n5ccn(C)c5=O)c(Cl)c4)c3O)ccn2)C1 [Example 819] : 1 to 10 nM

IC50 in this record for CCc1ncc(-c2cc(F)cc(-c3ccc(N4CCN(C)C4=O)c(Cl)c3)c2O)cc1N1CCNCC1 [Example 382] : 1 to 10 nM

IC50 in this record for Cn1ccn(-c2ccc(-c3cc(F)cc(-c4ccnc(N5CCN[C@H](CC(N)=O)C5)c4)c3O)cc2Cl)c1=O [Example 644] : 0.01 to 1 nM

IC50 in this record for CC(=O)Nc1ccc(-c2cccc(-c3cnc(-c4ccccc4)o3)c2O)cc1F [Example 85] : > 100 nM

IC50 in this record for CN1CCN(c2ccc(-c3cc(F)cc(-c4cc(N5CCNCC5)c5cn[nH]c5c4)c3O)cc2Cl)C1=O [Example 458] : 1 to 10 nM

IC50 in this record for COc1c(-c2ccc(NC(C)=O)cc2)cccc1-c1cc(N2CCN(C)CC2)no1 [Example 7] : > 100 nM

IC50 in this record for Cn1ccn(-c2ccc(-c3cc(F)cc(-c4ccnc(N5CCC6(CCO6)C5)c4)c3O)cc2Cl)c1=O (stereo not drawn) [Example 674] : 0.01 to 1 nM

IC50 in this record for CCc1ncc(-c2cc(F)cc(-c3ccc(-n4ccn(C)c4=O)c(Cl)c3)c2O)cc1N1CCN(C(C)(C)C)CC1 [Example 848] : 10 to 100 nM

IC50 in this record for CC(C)N1CCN(c2cc(-c3cc(F)cc(-c4ccc(-n5ccn(C)c5=O)c(Cl)c4)c3O)cnc2OC(F)F)CC1 [Example 824] : 1 to 10 nM

IC50 in this record for Cn1ccn(-c2ccc(-c3cc(F)cc(-c4ccnc(N5CCOCC5)c4)c3O)cc2Cl)c1=O [Example 615] : 1 to 10 nM

IC50 in this record for COC(=O)c1cc(-c2ccnc(N3CCNCC3)c2)c(O)c(-c2ccc(NC(C)=O)c(F)c2)c1 [Example 290] : > 100 nM

IC50 in this record for C[C@@H]1CN(c2cc(-c3cc(F)cc(-c4ccc(-n5ccn(C)c5=O)c(Cl)c4)c3O)cc3[nH]ncc23)CCN1 [Example 543] : 0.01 to 1 nM

IC50 in this record for CC(C)Oc1cc(-c2cc(F)cc(-c3ccnc(N4CCNCC4)c3)c2O)cc(Cl)c1N1CCN(C)C1=O [Example 418] : 10 to 100 nM

IC50 in this record for CC(=O)Nc1ccc(-c2cccc(-c3cncnc3)c2O)cc1F [Example 103] : 10 to 100 nM
